- assay_notes: NCI Yeast Anticancer Drug Screen. Data for the wt1 strain (AID 149);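 further: 0% = growth of vehicle-treated wt1 cultures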
- condition_set: S. cerevisiae wt1 strain (SPY 50644) growth inhibition; at 100.0 µM; hits give high values
About 79,000 compounds went through this panel and 15% of them were active in at least one assay; those are over-represented in the sample as a whole.
The following compounds are shown together with reported growth inhibition values.
Note: unit % is implicit; provide only the numeric part.

Use the examples below as a reference point.
CC(C)(C)C1=CC(=CC=C2C=CN(CCCCCCCCCCCO)C=C2)C=C(C(C)(C)C)C1=O: 99
Oc1cccc2cc(Cl)cnc12: 98
Cc1nc2ccc(N=NN(C)C)cc2[nH]1: 98
COC(=O)/C=C(/CC(=O)OC)C(=O)OC: -3
Cc1ccc(N=Nc2ccc(O)c(=O)cc2)cc1: 91
NNC(=O)CCc1cc2ccccc2c2ccccc12: 99
CCOC(=O)C(Br)C(Br)c1ccccc1Cl (stereo unspecified): 99
O=C1C=C(Cl)C(=O)C(c2ccc(Cl)cc2)=C1: 97

Record CSc1nc(C)c(CCOC(C)=O)c(N=P(c2ccccc2)(c2ccccc2)c2ccccc2)n1 . Reported growth inhibition: 92

growth inhibition recorded for this compound, O=[N+]([O-])c1ccc2c(c1)/C(=N/N=C1c3ccccc3Cc3ccccc31)c1cc([N+](=O)[O-])cc([N+](=O)[O-])c1-2 , is 97

Lab note: COc1ccc(N=CN(C)C)c(C)c1 gave growth inhibition of 95

Record CC(C)/C(Cl)=N\OC(=O)Nc1ccc(F)cc1F , field growth inhibition: 6

The compound identified as CC1=C(SCc2ccccc2)C(=O)c2ccccc2C1=O registered its growth inhibition at 91

Please fill in: growth inhibition reported for CCCCNC1CCC2(SCCS2)c2[nH]c3ccccc3c21 (stereo unspecified) = 6

Record O=C1Nc2ccc(Br)cc2C1=Nc1ccc2c(c1)OCO2 , field growth inhibition: 2

Input Cc1cccc(C(C)(C)C)c1NC(=O)C(C#N)C1=C(Cl)C(=O)c2ccccc2C1=O (stereo unspecified) . Output growth inhibition: 98

Per the record, Cc1ccc(Sc2ccccc2N)cc1 has growth inhibition of 99
